assay target: human A2a receptor (Homo sapiens, UniProt P29274)
Construct: purchased Perkin-Elmer RBHA2AM400UA; host or cells: HEK293 cells (membranes)
Sequence (P29274 whole entry): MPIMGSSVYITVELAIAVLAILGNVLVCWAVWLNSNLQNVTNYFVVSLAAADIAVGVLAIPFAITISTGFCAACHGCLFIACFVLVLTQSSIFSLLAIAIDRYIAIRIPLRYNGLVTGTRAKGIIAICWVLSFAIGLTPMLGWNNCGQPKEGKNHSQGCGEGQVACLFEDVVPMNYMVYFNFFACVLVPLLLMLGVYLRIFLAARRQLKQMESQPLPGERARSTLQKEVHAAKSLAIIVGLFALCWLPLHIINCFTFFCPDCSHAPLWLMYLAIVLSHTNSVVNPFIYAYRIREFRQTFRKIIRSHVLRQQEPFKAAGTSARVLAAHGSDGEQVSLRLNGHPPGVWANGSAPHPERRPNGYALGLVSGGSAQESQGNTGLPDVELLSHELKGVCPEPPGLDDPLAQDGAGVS
assay method text: Competition binding assay using Scintillation Proximity technology (A2a activity)
test parameters: membranes from HEK293 cells expressing the human A2a receptor; 0.5 nM tritiated ligand; Cheng-Prusoff
Each record here notes measured Ki.
assay readout: Ki (nM)

| smiles repr | assay readout | scale unit | result value |
| --- | --- | --- | --- |
| COc1cccc2c1nc(N)n1nc(Cc3cccc4ccsc34)cc21 | Ki | nM | 48 |
| Nc1nc2ccc(F)cc2c2cc(Cc3ccccc3)nn12 | Ki | nM | 67 |
| COc1cccc2c1nc(N)n1nc(Cc3cnn(C)c3)cc21 | Ki | nM | 15 |
| COc1cccc2c1nc(N)n1nc(Cc3ccccc3N3CCOCC3)cc21 | Ki | nM | 3 |
| COc1cccc2c1nc(N)n1nc(Cc3ccc(F)cc3F)cc21 | Ki | nM | 10 |
| COc1cccc2c1nc(N)n1nc(Cc3ccc4[nH]ncc4c3)cc21 | Ki | nM | 131 |
| COc1cccc2c1nc(N)n1nc(Cc3ccccc3OC(F)F)cc21 | Ki | nM | 10 |
| COc1cccc2c1nc(N)n1nc(Cc3cc(F)cc(F)c3)cc21 | Ki | nM | 5 |
| COc1cccc2c1nc(N)n1nc(-c3nnc(-c4cccc5cccnc45)o3)cc21 | Ki | nM | 19 |
| Nc1nc2ccc(F)cc2c2cc(Cc3cccc4cccnc34)nn12 | Ki | nM | 45 |

// provenance: patent US10688082B2
